B1: INTS3 (parent)
chain: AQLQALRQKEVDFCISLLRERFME

variants of: B1; assay: protein stability index of a GFP-peptide fusion (GPS, HEK-293T) (PSI 1-6); higher = more stable; settings: c terminus: a fixed tail appended;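 further: lentivirally expressed fusions sorted by FACS into six bins by GFP to DsRed ratio, PSI derived from sequencing read proportions per bin multiplied by bin number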
I'd appreciate it if you could supply protein stability index values for the items below.
Give only the figure.

q: Can you look up the measured protein stability index of `L3E` for me?
a: 2.21

q: Can you handle `M23H` next?
a: 1.96

q: Can you handle `A1I` next?
a: 2.43

q: Can you handle `S16R` next?
a: 3.39

q: Can you handle `R19N` next?
a: 3.64

q: Can you handle `L17R` next?
a: 2.08

q: Can you handle `M23L` next?
a: 2.29

q: Can you handle `Q4N` next?
a: 2.4

q: Can you handle `S16K` next?
a: 1.65

q: Can you handle `L3G` next?
a: 2.11

q: Can you handle `Q2I` next?
a: 1.67

q: Can you handle `D12H` next?
a: 3.57

q: Can you handle `Q4L` next?
a: 2.45

q: Can you handle `A1C` next?
a: 3.01

q: Can you handle `L18S` next?
a: 1.87

q: Can you handle `R7T` next?
a: 3.43

q: Can you handle `V11N` next?
a: 2.25

q: Can you handle `A1E` next?
a: 2.65

q: Can you handle `I15Q` next?
a: 1.77

q: Can you handle `L17N` next?
a: 2.1

q: Can you handle `L18Q` next?
a: 3.04

q: Can you handle `C14Y` next?
a: 2.16

q: Can you handle `C14I` next?
a: 2.68

q: Can you handle `S16V` next?
a: 1.11

q: Can you handle `D12C` next?
a: 3.46

q: Can you handle `K9I` next?
a: 3.07

q: Can you handle `E24T` next?
a: 1.77

q: Can you handle `C14L` next?
a: 2.93

q: Can you handle `V11W` next?
a: 2.14

q: Can you handle `Q8R` next?
a: 1.91

q: Can you handle `C14G` next?
a: 1.84

q: Can you handle `L6S` next?
a: 2.14

q: Can you handle `V11C` next?
a: 1.29

q: Can you handle `F13D` next?
a: 1.55

q: Can you handle `E20G` next?
a: 3.34

q: Can you handle `I15T` next?
a: 2.07

q: Can you handle `Q4R` next?
a: 2.3

q: Can you handle `V11G` next?
a: 1.72

q: Can you handle `Q2E` next?
a: 1.48

q: Can you handle `L6P` next?
a: 2.25

q: Can you handle `I15N` next?
a: 2.46

q: Can you handle `K9M` next?
a: 2.65

q: Can you handle `I15D` next?
a: 2.54

q: Can you handle `E10L` next?
a: 3.79

q: Can you handle `L17Y` next?
a: 2.51

q: Can you handle `E20D` next?
a: 2.65
